study-system: T1, SNTG1, Q9NSN8
T1 sequence (Q9NSN8 52-150, limits assumed, looked up): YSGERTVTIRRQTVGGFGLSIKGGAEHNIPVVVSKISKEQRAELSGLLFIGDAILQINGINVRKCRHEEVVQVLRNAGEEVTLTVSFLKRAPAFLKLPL
procedure-text: holdup assay
Parameters: key: below the threshold = too weak to quantify, mostly under pKd 3.1 to 4
condition-label: plain residues with an end cap or a label only (N-terminal biotin on a linker: ado-ado)
reported-property: pKd

Worked cases, pKd given:
Which value of pKd has been reported for DGVNEKVSCV [HTR2A, P28223] in the records?
4.33

Also, KSRVAFFEEL [NF2, P35240;P35240-1] please.
below the threshold

Also, KRPEMTSSSV [MUC3A, MUC3B, Q02505;Q9H195] please.
4.08

Also, SRSVVESDEL [MYPN, Q86TC9] please.
below the threshold

Also, EPQYQPGENL [SRC, P12931] please.
below the threshold

***
Which value of pKd has been reported for MQHQRTHTRV [ZSCAN30, Q86W11] in the records?
below the threshold

Also, TNSRHGETTV [FZD2, Q14332] please.
4.27

Also, STKRKLASAV [NCF1, P14598] please.
below the threshold
